Ref: PubChem BioAssay (NCATS)

# assayProcedure: qHTS for differential inhibitors of proliferation of Plasmodium falciparum line 7G8 (AID 1815);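 further: parasite growth measured after three days of incubation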
# measurementContext: Plasmodium falciparum 7G8 proliferation inhibition; series mostly up to 28.7 µM
Records with an inconclusive call do not appear. Active and inactive are the calls of the source. The call rests on the fitted dose curve; in most records, active means well fitted curve in the direction sought with a large enough effect; inconclusive means small, poorly fitted or top-dose-only effect, or another doubt; inactive means no such curve, though single readings can be large or run the other way.
Respond with a class label; see 1.0 = active, 0.0 = inactive

Please review the following examples before continuing.
Problem: What classification did CNc1ncnc2c1ncn2[C@@H]1O[C@H](CO)[C@H](O)[C@H]1O end up with in this test?
Solution: 0.0

Problem: What classification did CCSC(N)=Nc1ccc(C(F)(F)F)cc1 end up with in this test?
Solution: 0.0

Problem: What classification did NCCNC(=O)c1ccc(Cl)cc1 end up with in this test?
Solution: 0.0

Problem: What classification did NCC1OC(O[C@@H]2[C@H](O)[C@@H](OC3C(O)C(N)CC(N)C3OC3OC(CO)C(O)C(O)C3N)O[C@@H]2CO)C(N)C(O)C1O (stereo partly specified) end up with in this test?
Solution: 0.0

Further cases:
Problem: What classification did N[C@H](Cc1ccc(O)c(O)c1)C(=O)O end up with in this test?
Solution: 0.0

Problem: What classification did CCCC(=O)NCCc1c2n(c3ccc(OC)cc13)Cc1ccccc1-2 end up with in this test?
Solution: 1.0

Problem: What classification did NCCC(=O)NCCc1cnc[nH]1 end up with in this test?
Solution: 0.0
